- Test system: rHEK293-GCaMP5g cells
- METHOD: Ca2+ re-entry in rHEK293-GCaMP5g cells after Ca2+ store depletion (FlexStation 3)
- Assay type: cell-based, human
- ASSAY CONTEXT: carbachol 100 μM, Ca2+ 1.3 mM restored; areas under the curve (RFU) normalised to DMSO control; read-out: EC50, inhibition of Ca2+ re-entry
pEC50: −log10 of the molar value.
MEASURE: pEC50

## Task I'm curious: which pEC50 was measured for Oc1ccc(C2=Cc3ccc(O)cc3OC2)cc1 tested on rHEK293-GCaMP5g cells?
## Result ~5.70

Reference for the values: patent US20200215025A1
